Target: Voltage-gated inwardly rectifying potassium channel KCNH2 (Homo sapiens, UniProt Q12809)
Sequence (Q12809 whole entry): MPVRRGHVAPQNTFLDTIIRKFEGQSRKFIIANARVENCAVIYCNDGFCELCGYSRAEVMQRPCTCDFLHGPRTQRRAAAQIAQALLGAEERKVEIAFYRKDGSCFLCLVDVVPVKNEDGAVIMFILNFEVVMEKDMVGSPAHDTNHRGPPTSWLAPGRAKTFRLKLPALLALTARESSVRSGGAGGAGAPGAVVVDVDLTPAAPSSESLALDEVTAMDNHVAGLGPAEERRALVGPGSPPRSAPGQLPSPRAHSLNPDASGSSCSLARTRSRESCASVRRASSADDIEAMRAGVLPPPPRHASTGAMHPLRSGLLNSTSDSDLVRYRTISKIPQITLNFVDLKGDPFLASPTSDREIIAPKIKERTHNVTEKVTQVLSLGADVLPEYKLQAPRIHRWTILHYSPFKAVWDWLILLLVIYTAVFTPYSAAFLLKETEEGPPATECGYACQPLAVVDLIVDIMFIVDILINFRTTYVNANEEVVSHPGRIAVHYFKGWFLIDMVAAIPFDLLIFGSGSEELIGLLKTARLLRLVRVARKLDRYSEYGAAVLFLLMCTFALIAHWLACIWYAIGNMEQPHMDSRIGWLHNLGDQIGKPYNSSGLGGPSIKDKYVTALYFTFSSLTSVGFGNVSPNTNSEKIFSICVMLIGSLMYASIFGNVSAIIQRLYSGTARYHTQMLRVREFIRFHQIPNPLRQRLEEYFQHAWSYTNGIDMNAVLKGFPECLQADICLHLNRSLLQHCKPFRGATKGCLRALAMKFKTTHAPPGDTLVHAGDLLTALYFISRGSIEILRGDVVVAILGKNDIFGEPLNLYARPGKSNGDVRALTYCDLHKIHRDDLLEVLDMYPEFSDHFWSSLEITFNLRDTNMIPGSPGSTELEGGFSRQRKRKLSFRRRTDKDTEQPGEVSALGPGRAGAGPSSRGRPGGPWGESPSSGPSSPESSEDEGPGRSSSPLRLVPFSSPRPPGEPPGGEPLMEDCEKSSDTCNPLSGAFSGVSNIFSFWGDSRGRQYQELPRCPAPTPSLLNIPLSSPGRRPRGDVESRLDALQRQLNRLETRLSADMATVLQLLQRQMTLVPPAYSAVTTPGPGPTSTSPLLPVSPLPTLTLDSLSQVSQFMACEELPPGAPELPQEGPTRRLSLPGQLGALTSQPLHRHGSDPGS
Experiment: Inhibition of human ERG expressed in HEK293 cells at -80 mV holding potential by whole-cell patch clamp method
outcome.measure: IC50

Documented IC50 of "CC(=O)O[C@]12C[C@@H](C)[C@H](OC(=O)c3ccccc3)[C@@H]1/C=C(\C)[C@H](O)C[C@H]1[C@@H](/C=C(\C)C2=O)C1(C)C" : > 30 µM

----------
Biological target: hERG (KCNH2) (Homo sapiens)
Assay: Inhibition of human ERG expressed in HEK293 cells at 10 uM at -80 mV holding potential by whole-cell patch clamp method
Type: toxicity, cell-based
Details: HEK293 cells that express hERG
Give inhibition at 10 µM for every item shown.
Dear colleague, please return just the value in %, with no unit written.

Documented inhibition at 10 µM of "COC(=O)CCC(=O)O[C@@H]1C[C@H]2[C@@H](/C=C(\C)C(=O)[C@@]3(OC(C)=O)C[C@@H](C)[C@H](O)[C@@H]3/C=C/1C)C2(C)C" : 29.7

Documented inhibition at 10 µM of "CC(=O)O[C@@H]1CC(=O)C(C)(C)/C=C/[C@@H](C)[C@@H](O)[C@@]2(OC(C)=O)C[C@@H](C)[C@H](OC(=O)c3ccccc3)[C@@H]2/C=C/1C" : 36.9

Documented inhibition at 10 µM of "CC(=O)O[C@@H]1[C@@H](C)/C=C/C(C)(C)C(=O)C[C@@H](O)/C(C)=C/[C@H]2[C@@H](OC(=O)c3ccccc3)[C@H](C)C[C@]12OC(C)=O" : 44.6

----------
Give inhibition for every item shown.
Biological target: UniProt:P22001
Experiment: Inhibition of Kv1.3 (unknown origin) expressed in HEK293 cells at 10 uM at -90 mV holding potential by automated patch-clamp technique relative to control
Format: cell-based
Dear colleague, please return just the value in %, with no unit written.

Documented inhibition of "CC(=O)O[C@]12C[C@@H](C)[C@H](OC(=O)c3ccccc3)[C@@H]1/C=C(\C)[C@H](O)C[C@H]1[C@@H](/C=C(\C)C2=O)C1(C)C" : 55.6

Documented inhibition of "C/C1=C\[C@H]2[C@@H](OC(=O)c3ccccc3)[C@H](C)C[C@]2(O)[C@H](O)[C@@H](C)/C=C/C(C)(C)C(=O)C[C@H]1O" : 43.5

Documented inhibition of "COC(=O)CCC(=O)O[C@@H]1C[C@H]2[C@@H](/C=C(\C)C(=O)[C@@]3(OC(C)=O)C[C@@H](C)[C@H](O)[C@@H]3/C=C/1C)C2(C)C" : 47.6

Documented inhibition of "CCC/C=C\C=C\C(=O)O[C@@H]1C[C@H]2[C@@H](/C=C(\C)C(=O)[C@@]3(OC(C)=O)C[C@@H](C)[C@H](O)[C@@H]3/C=C/1C)C2(C)C" : 39.8

Documented inhibition of "CC(=O)O[C@]12C[C@@H](C)[C@H](O)[C@@H]1/C=C(\C)[C@H](O)C[C@H]1[C@@H](/C=C(\C)C2=O)C1(C)C" : 21.7

Documented inhibition of "CC(=O)O[C@@H]1CC(=O)C(C)(C)/C=C/[C@@H](C)[C@@H](O)[C@@]2(OC(C)=O)C[C@@H](C)[C@H](OC(=O)c3ccccc3)[C@@H]2/C=C/1C" : 62.2

----------
Target: hERG (KCNH2) (Homo sapiens)
Assay: Inhibition of human ERG expressed in HEK293 cells at 30 uM at -80 mV holding potential by whole-cell patch clamp method
Format: toxicity, cell-based
Settings: HEK293 cells that express hERG
Give inhibition at 30 µM for every item shown.
Dear colleague, please return just the value in %, with no unit written.

Documented inhibition at 30 µM of "CC(=O)OCC1=C[C@@H]2C(=O)[C@]3(C=C(C)[C@H](O)[C@@]3(O)[C@@H]1O)[C@H](C)C[C@@H]1[C@H]2C1(C)C" : 23.3

Documented inhibition at 30 µM of "CC1=C2C=C3CC[C@@H]4C(C)(C)C(=O)[C@H](O)[C@@]4(C)[C@@H]3C[C@H]2OC1=O" : 19.9

Documented inhibition at 30 µM of "C=C1C[C@@]23CC[C@@H]4C(C)(C)C(=O)CC[C@@]4(C)[C@@H]2C[C@@H]1[C@@H](O)C3=O" : 24.5

Documented inhibition at 30 µM of "COC(=O)CCC(=O)O[C@@H]1C[C@H]2[C@@H](/C=C(\C)C(=O)[C@@]3(OC(C)=O)C[C@@H](C)[C@H](O)[C@@H]3/C=C/1C)C2(C)C" : 49.7

Documented inhibition at 30 µM of "CC(=O)O[C@@H]1CC(=O)C(C)(C)/C=C/[C@@H](C)[C@@H](O)[C@@]2(OC(C)=O)C[C@@H](C)[C@H](OC(=O)c3ccccc3)[C@@H]2/C=C/1C" : 60.2

Documented inhibition at 30 µM of "CC(=O)O[C@]12C[C@@H](C)[C@H](OC(=O)c3ccccc3)[C@@H]1/C=C(\C)[C@H](O)C[C@H]1[C@@H](/C=C(\C)C2=O)C1(C)C" : 40.9

Documented inhibition at 30 µM of "CC(=O)O[C@@H]1[C@@H](C)/C=C/C(C)(C)C(=O)C[C@@H](O)/C(C)=C/[C@H]2[C@@H](OC(=O)c3ccccc3)[C@H](C)C[C@]12OC(C)=O" : 75.4

----------
Molecular target: Potassium voltage-gated channel subfamily A member 3 (Homo sapiens)
Assay: Inhibition of Kv1.3 (unknown origin) expressed in HEK293 cells at 10 uM at -90 mV holding potential by automated patch-clamp technique relative to control
Assay type: cell-based
Record Fulfilled whenever inhibition is at 30% or higher; record Not fulfilled when lower.

-- ask Could you verify whether the entry "CC(=O)O[C@]12C[C@@H](C)[C@H](O)[C@@H]1/C=C(\C)[C@H](O)C[C@@H]1[C@@H](/C=C(\C)C2=O)C1(C)C" shows inhibition of no less than 30%?
-- reply Fulfilled

-- ask Could you verify whether the entry "CC(=O)O[C@H]1[C@@H](C)/C=C/C(C)(C)C(=O)CC(=O)/C(C)=C/[C@H]2[C@@H](OC(=O)c3ccccc3)[C@H](C)C[C@@]21O" shows inhibition of no less than 30%?
-- reply Fulfilled

-- ask Could you verify whether the entry "CC(=O)O[C@@H]1[C@@H](C)/C=C/C(C)(C)C(=O)C[C@@H](O)/C(C)=C/[C@H]2[C@@H](OC(=O)c3ccccc3)[C@H](C)C[C@]12O" shows inhibition of no less than 30%?
-- reply Not fulfilled

-- ask Could you verify whether the entry "CC(=O)O[C@]12C[C@@H](C)[C@H](O)[C@@H]1[C@H]1O[C@]1(C)[C@H](O)C[C@H]1[C@@H](/C=C(\C)C2=O)C1(C)C" shows inhibition of no less than 30%?
-- reply Fulfilled

-- ask Could you verify whether the entry "CC(=O)O[C@@H]1[C@@H](C)/C=C/C(C)(C)C(=O)C[C@@H](O)/C(C)=C/[C@H]2[C@@H](OC(=O)c3ccccc3)[C@H](C)C[C@]12OC(C)=O" shows inhibition of no less than 30%?
-- reply Fulfilled

----------
Give inhibition for every item shown.
Target: Potassium voltage-gated channel subfamily A member 3 (Homo sapiens, UniProt P22001)
Sequence (P22001 whole entry): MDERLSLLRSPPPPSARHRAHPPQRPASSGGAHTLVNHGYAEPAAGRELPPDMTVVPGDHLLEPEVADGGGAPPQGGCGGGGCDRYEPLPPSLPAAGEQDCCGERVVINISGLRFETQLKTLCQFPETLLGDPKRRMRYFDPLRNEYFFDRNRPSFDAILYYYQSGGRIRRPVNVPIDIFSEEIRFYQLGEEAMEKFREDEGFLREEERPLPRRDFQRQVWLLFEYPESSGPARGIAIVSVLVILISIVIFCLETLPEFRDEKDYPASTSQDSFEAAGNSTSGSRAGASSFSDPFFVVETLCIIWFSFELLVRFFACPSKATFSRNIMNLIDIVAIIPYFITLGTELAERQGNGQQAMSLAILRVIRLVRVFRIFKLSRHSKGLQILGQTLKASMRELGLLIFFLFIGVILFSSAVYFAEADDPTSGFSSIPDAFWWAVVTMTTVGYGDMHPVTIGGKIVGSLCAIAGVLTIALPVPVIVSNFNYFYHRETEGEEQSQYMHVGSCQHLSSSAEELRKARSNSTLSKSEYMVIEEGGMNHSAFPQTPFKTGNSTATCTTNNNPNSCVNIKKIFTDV
Assay: Inhibition of Kv1.3 (unknown origin) expressed in HEK293 cells at 30 uM at -90 mV holding potential by automated patch-clamp technique relative to control
Assay type: cell-based
Dear colleague, please return just the value in %, with no unit written.

Documented inhibition of "CC(=O)OCC1=C[C@@H]2C(=O)[C@]3(C=C(C)[C@H](O)[C@@]3(O)[C@@H]1O)[C@H](C)C[C@@H]1[C@H]2C1(C)C" : 12.5

Documented inhibition of "CC1=C2C=C3CC[C@@H]4C(C)(C)[C@H](O)C(=O)C[C@@]4(C)[C@@H]3C[C@H]2OC1=O" : 20.4

Documented inhibition of "CC(=O)O[C@@H]1CC(=O)C(C)(C)/C=C/[C@@H](C)[C@@H](O)[C@@]2(OC(C)=O)C[C@@H](C)[C@H](OC(=O)c3ccccc3)[C@@H]2/C=C/1C" : 86.5

Documented inhibition of "CC(=O)O[C@H]1[C@@H](C)/C=C/C(C)(C)C(=O)CC(=O)/C(C)=C/[C@H]2[C@@H](OC(=O)c3ccccc3)[C@H](C)C[C@@]21O" : 77.5

----------
Biological target: Potassium voltage-gated channel subfamily A member 3 (Homo sapiens, UniProt P22001)
Experiment: Inhibition of Kv1.3 (unknown origin) expressed in HEK293 cells at 30 uM at -90 mV holding potential by automated patch-clamp technique relative to control
Assay type: cell-based
outcome.measure: inhibition (%)
Dear colleague, please return just the value in %, with no unit written.

Documented inhibition of "CC1=C2C(=C[C@H]3[C@]4(C)CC[C@@H](O)C(C)(C)[C@H]4CC[C@]34O[C@H]24)OC1=O" : 14.5

Documented inhibition of "CC(=O)O[C@@H]1[C@@H](C)/C=C/C(C)(C)C(=O)C[C@@H](O)/C(C)=C/[C@H]2[C@@H](OC(=O)c3ccccc3)[C@H](C)C[C@]12OC(C)=O" : 84.2

Documented inhibition of "C/C1=C\[C@H]2[C@@H](OC(=O)c3ccccc3)[C@H](C)C[C@]2(O)[C@H](O)[C@@H](C)/C=C/C(C)(C)C(=O)C[C@H]1O" : 83.5

Documented inhibition of "CC(=O)O[C@@H]1[C@@H](C)/C=C/C(C)(C)C(=O)C[C@@H](OC(C)=O)/C(C)=C/[C@H]2[C@@H](OC(=O)c3ccccc3)[C@H](C)C[C@]12O" : 72

Documented inhibition of "CC(=O)O[C@@H]1[C@@H](C)/C=C/C(C)(C)C(=O)C[C@@H](O)/C(C)=C/[C@H]2[C@@H](OC(=O)c3ccccc3)[C@H](C)C[C@]12O" : 69.3

Documented inhibition of "CC1=C2C=C3CC[C@@H]4C(C)(C)C(=O)CC[C@@]4(C)[C@]3(O)C[C@H]2OC1=O" : 17.2
